biological target: neutral endopeptidase (NEP, EC 3.4.24.11) (Rattus norvegicus, UniProt P07861)
Sequence (P07861 whole entry): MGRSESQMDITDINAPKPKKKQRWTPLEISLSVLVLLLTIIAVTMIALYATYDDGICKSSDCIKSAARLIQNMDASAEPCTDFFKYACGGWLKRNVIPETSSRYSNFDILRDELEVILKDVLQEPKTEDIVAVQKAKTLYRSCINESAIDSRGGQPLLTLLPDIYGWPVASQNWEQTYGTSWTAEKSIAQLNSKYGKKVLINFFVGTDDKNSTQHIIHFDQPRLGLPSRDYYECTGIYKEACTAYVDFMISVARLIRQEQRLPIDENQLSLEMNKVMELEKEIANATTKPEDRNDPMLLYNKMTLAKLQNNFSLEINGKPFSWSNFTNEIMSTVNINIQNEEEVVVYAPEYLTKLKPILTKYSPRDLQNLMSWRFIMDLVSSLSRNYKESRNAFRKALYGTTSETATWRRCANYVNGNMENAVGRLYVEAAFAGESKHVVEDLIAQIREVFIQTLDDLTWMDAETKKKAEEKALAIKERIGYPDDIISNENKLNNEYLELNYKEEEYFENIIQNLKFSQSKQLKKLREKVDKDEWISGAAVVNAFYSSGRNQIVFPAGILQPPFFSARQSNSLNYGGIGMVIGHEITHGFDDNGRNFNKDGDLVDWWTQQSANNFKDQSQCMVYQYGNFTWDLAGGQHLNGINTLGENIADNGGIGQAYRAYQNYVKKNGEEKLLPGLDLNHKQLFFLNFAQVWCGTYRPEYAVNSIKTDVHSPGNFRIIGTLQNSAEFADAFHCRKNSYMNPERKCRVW
reported_property: IC50

State IC50 on neutral endopeptidase (NEP, EC 3.4.24.11) (Rattus norvegicus, UniProt P07861). Entry: O=C(N[C@H]1CCc2cccc3c2N(C1=O)[C@H](C(=O)O)C3)[C@@H](S)Cc1ccccc1
~0.05 µM
